System: T47D
assay_info: NCI tumour cell line growth inhibition, 48 h
Calls of active or inactive are those of the source. No stated cut-off is given here; in the data, active = GI50 up to about 1.1 µM and inactive = higher.
Choose the fitting class; nothing outside active, inactive is accepted.

Input line: What was the test verdict on O=C(O)CNC(=O)c1ccccc1O ?
Output line: inactive

Input line: What was the test verdict on COc1ccc(/C(Nc2ccccc2)=C(\CCl)c2ccccc2)cc1OC ?
Output line: inactive

Input line: What was the test verdict on Cc1cn(C2CC(N)C(C(=O)NCC(=O)O)O2)c(=O)[nH]c1=O (configuration not stated) ?
Output line: inactive

Input line: What was the test verdict on O=C(O)CCC(C(=O)O)N1C(=O)c2ccccc2C1=O (configuration not stated) ?
Output line: inactive

Input line: What was the test verdict on C=C1CCCC(C)(C)[C@H]1C/C=C1\CCOC1=O ?
Output line: inactive

Input line: What was the test verdict on C/C=C/C=C/c1cc2cc3c(c(O)c2c(=O)[nH]1)C1(CC3)C(=O)c2c(O)c3c(c(O)c2C1=O)C(=O)C(OC)=CC3=O (configuration not stated) ?
Output line: active

Each recorded value in this set is attributed to ChEMBL document CHEMBL1201862.
